Source listed as patent US20100022514A1.

Target: HDAC-1 (Homo sapiens)
Construct: made in house
Sequence (Q13547 whole entry): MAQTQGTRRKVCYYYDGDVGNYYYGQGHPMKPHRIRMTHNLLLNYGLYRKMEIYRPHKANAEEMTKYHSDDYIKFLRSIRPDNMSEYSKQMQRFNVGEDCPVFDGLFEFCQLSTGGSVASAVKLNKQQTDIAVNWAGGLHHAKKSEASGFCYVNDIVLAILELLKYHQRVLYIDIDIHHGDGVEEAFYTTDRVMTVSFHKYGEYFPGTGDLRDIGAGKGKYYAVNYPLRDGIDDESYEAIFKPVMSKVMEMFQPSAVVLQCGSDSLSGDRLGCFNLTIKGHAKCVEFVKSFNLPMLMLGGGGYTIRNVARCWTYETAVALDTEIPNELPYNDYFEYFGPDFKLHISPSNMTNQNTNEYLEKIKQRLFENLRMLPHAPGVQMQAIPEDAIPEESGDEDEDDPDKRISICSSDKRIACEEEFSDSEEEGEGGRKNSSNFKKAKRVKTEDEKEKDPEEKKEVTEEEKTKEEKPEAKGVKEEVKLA
Assay: Deacetylase fluorescence assay (HDAC-1)
Format: biochemical
Conditions: read-out: HDAC-1 IC50
pIC50: −log10 of the molar value.
Consider the following compounds; for each one, report its pIC50.

Per the records, this compound ( O=C(/C=C/c1ccc2c(c1)CN(Cc1ccccc1)C2)NO [Example 1] ) has pIC50 equal to 6.00 to 7.00

response.value for Cc1[nH]c2ccccc2c1CCN1CCc2ccc(/C=C/C(=O)NO)cc2C1 [Example 39] (field: pIC50) = > 7.00

Form: compound = CCc1nn2ccccc2c1CCN1CCc2cc(/C=C/C(=O)NO)ccc2C1 [Example 72] ; pIC50 = > 7.00
